Reported glass transition temperature is given for each of the following molecules.
observable: glass transition temperature (°C)

molecule="*CC(*)(C)C(=O)OCCCCCCCCCCOc1ccc(OC(=O)c2ccc(OC)cc2)cc1 (repeat unit)" value_units=°C observed=21.00
molecule="*C(=O)OCCCCCCCOC(=O)c1ccc(N2C(=O)c3ccc(*)cc3C2=O)cc1 (repeat unit)" value_units=°C observed=77.00
molecule="*Nc1cc(NC(=O)c2ccc(C(*)=O)cc2)cc(C(=O)OCCOc2ccc(/C=C/C(=O)c3ccccc3)cc2)c1 (repeat unit)" value_units=°C observed=233.00
molecule="*Nc1ccc(Cc2ccc(NC(=O)c3ccc(P(=O)(c4ccccc4)c4ccc(C(*)=O)cc4)cc3)cc2)cc1 (repeat unit)" value_units=°C observed=307.00
